Target: Kv1.3 potassium channel (Homo sapiens)
Sequence (P22001 whole entry): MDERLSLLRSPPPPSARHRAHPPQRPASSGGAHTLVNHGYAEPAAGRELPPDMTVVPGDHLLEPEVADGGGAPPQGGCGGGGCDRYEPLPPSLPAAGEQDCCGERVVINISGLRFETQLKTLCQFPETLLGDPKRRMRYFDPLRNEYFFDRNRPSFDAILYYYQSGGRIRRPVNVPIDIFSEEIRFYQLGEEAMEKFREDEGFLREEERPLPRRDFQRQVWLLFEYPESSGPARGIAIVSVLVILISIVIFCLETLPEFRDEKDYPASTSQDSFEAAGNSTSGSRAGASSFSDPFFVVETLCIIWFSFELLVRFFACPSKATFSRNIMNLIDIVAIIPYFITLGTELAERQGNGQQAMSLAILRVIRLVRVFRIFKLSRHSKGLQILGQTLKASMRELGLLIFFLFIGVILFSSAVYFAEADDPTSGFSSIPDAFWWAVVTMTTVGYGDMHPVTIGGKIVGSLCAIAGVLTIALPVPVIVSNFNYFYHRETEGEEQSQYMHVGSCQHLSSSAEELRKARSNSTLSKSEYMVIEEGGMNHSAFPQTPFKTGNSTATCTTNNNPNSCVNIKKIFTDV
Experiment: Kv1.3 potassium channel blocker activity, automated whole-cell patch clamp (Patchliner)
Details: CHO-K1 cells stably expressing Kv1.3; whole cell current inhibition; read-out: Kv1.3_IC50
pIC50: −log10 of the molar value.
QUANTITY: pIC50

Examples from the recorded data:
[[record]]
compound = "N[C@@H](c1cc(Cl)c(Cl)cc1O)C1CCN(C(=O)[C@H]2C[C@H](O)C2)CC1 [Compound 139]"
quantity = "pIC50"
result = "> 6.30"

[[record]]
compound = "N[C@@H](c1cc(Cl)c(Cl)cc1O)C1CCN(C(=O)[C@H]2CNC(=O)OC2)CC1 (single isomer, unassigned; isomer 1) [Compound 338]"
quantity = "pIC50"
result = "> 6.30"

[[record]]
compound = "C[C@@H](O)[C@H](N)C(=O)N1CCC([C@@H](N)c2cc(Cl)c(Cl)cc2O)CC1 [Compound 174, bis (trifluoroacetic acid)]"
quantity = "pIC50"
result = "> 5.00"


# batch size: 3; output pIC50 per entry
1. Nc1nnc(C(=O)N2CCC([C@@H](N)c3cc(Cl)c(Cl)cc3O)CC2)o1 [Compound 155, trifluoroacetic acid]
2. CN[C@H](c1cc(Cl)c(Cl)cc1O)C1CCN(C(=O)[C@H](O)CO)CC1 (single isomer, unassigned) [Compound 336]
3. N[C@@H](c1cc(Cl)c(Cl)cc1O)C1CCN(C(=O)C2COCCO2)CC1 (stereo partly drawn) [Compound 137, trifluoroacetic acid]

Marked response:
1: > 5.00; 2: > 5.00; 3: > 6.30

---

Could you please report measured IC50 for the items listed next?
Molecular target: hERG channel (Homo sapiens, UniProt Q12809)
Sequence (Q12809 whole entry): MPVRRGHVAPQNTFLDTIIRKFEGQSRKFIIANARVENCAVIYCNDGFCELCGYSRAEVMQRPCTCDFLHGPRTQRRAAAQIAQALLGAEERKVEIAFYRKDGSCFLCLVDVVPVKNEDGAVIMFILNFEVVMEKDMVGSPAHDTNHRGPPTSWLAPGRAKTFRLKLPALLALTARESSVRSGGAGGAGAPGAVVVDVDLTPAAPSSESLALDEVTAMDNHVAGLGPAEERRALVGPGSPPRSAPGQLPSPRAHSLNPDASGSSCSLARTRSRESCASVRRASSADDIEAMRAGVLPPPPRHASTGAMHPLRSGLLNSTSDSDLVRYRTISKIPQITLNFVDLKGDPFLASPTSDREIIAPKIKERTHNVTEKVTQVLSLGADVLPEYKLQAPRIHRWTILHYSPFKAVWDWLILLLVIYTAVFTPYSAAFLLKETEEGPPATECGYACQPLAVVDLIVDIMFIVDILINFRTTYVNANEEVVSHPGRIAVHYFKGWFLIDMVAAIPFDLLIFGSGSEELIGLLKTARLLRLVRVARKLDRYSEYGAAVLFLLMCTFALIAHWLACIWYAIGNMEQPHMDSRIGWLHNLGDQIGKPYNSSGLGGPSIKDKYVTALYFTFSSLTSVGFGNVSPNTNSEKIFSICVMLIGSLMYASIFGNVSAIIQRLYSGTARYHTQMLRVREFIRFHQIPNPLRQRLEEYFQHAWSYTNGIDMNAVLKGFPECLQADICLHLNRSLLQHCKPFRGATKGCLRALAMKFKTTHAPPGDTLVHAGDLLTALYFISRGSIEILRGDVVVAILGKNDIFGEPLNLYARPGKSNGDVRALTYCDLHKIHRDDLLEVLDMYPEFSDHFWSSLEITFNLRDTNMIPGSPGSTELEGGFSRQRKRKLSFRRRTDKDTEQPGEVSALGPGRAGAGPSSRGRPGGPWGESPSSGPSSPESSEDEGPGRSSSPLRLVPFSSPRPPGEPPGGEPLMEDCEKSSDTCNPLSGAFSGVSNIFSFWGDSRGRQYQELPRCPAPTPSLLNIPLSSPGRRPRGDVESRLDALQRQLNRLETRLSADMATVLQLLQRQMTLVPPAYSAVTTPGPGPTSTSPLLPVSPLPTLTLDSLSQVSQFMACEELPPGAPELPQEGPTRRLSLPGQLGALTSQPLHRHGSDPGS
Assay: hERG electrophysiology, automated whole-cell patch clamp (Patchliner)

Examples from the recorded data:
[[record]]
compound = "N[C@@H](c1cc(Cl)c(Cl)cc1O)C1CCN(C(=O)c2nnc[nH]2)CC1"
quantity = "IC50"
result = "> 30 µM"

[[record]]
compound = "Cc1cc(O)c([C@H](N)C2CCN(C(=O)c3ccc4nccn4c3)CC2)cc1Cl"
quantity = "IC50"
result = "< 30 µM"


# batch size: 5; output IC50 per entry
1. NC(c1c(O)cc(Cl)c(Cl)c1Cl)C1CCNCC1 (stereo not shown)
2. COc1ccc(C(=O)N2CCC([C@@H](N)c3cc(Cl)c(C)cc3O)CC2)cn1
3. N[C@@H](c1cc(Cl)c(Cl)cc1O)C1CCN(C(=O)c2cnc(=O)[nH]c2)CC1
4. N[C@@H](c1cc(Cl)c(Cl)cc1O)C1CCN(C(=O)c2c[nH]c3ccccc23)CC1
5. Nc1[nH]ncc1C(=O)N1CCC([C@@H](N)c2cc(Cl)c(Cl)cc2O)CC1

Marked response:
["> 30 µM", "< 30 µM", "> 30 µM", "< 30 µM", "> 30 µM"]

---

Molecular target: UniProtKB P22001
Assay: Kv1.3 potassium channel blocker activity, automated whole-cell patch clamp (Patchliner)
Settings: CHO-K1 cells stably expressing Kv1.3; whole cell current inhibition; read-out: Kv1.3_IC50
pIC50: −log10 of the molar value.
QUANTITY: pIC50

[[record]]
compound = "N[C@@H](c1cc(Cl)c(Cl)cc1O)[C@H]1CCCN(C(=O)[C@H](O)CO)CC1 (single isomer, unassigned; isomer 2)"
result = "> 5.00"

[[record]]
compound = "N[C@@H](c1c(O)cc(Cl)c(Cl)c1F)C1CCN(C(=O)[C@H](O)CO)CC1"
result = "> 6.30"

[[record]]
compound = "CNC(c1cc(Cl)c(Cl)cc1O)C1CCN(C(=O)C(O)CO)CC1 (centres unmarked)"
result = "> 5.00"

[[record]]
compound = "N[C@@H](c1cc(Cl)c(Cl)cc1O)C1CCN(S(=O)(=O)[C@H]2CCNC2)CC1 (single isomer, unassigned; isomer 2)"
result = "> 6.30"

[[record]]
compound = "O=C([C@@H]1CCNC1)N1CCC([C@@H](O)c2c(O)ccc(Cl)c2Cl)CC1 (single isomer, unassigned)"
result = "> 6.30"


# batch size: 8; output pIC50 per entry
1. N[C@@H](c1cc(Cl)c(C(F)F)cc1O)C1CCN(C(=O)[C@H](O)CO)CC1
2. N[C@@H](c1cc(Cl)c(Cl)cc1O)C1CCN(C(=O)C2(O)CNC2)CC1
3. CN1C(=O)CC[C@@H]1C(=O)N1CCC([C@@H](N)c2cc(Cl)c(Cl)cc2O)CC1
4. CCNC(c1cc(Cl)c(Cl)cc1O)C1CCN(C(=O)[C@H](O)CO)CC1 (some centres unmarked)
5. NC(=O)CCN1CCC(C(N)c2cc(Cl)c(Cl)cc2O)CC1 (centres unmarked)
6. Cc1cc(O)c([C@H](N)C2CCN(C(=O)c3ccc(CO)nc3)CC2)cc1Cl
7. N[C@@H](c1cc(Cl)c(F)cc1O)C1CCN(C(=O)[C@H](O)CO)CC1
8. N[C@@H](c1cc(Cl)c(Br)cc1O)C1CCN(C(=O)[C@H](O)CO)CC1

Marked response:
["> 6.30", "> 6.30", "> 5.00", "> 4.52", "> 5.00", "> 6.30", "> 5.00", "> 6.30"]

Exam item: Returns the measured pIC50 for the input compound. Input: O=C([C@H]1CCNC1)N1CCC[C@H]([C@H](O)c2c(O)ccc(Cl)c2Cl)CC1 (single isomer, unassigned; isomer 2)
Marked response: > 5.00

---

Target: hERG channel (Homo sapiens)
Test: hERG electrophysiology, automated whole-cell patch clamp (Patchliner)
pIC50: −log10 of the molar value.
Could you please report measured pIC50 for the items listed next?

Examples from the recorded data:
[[record]]
molecule = "N[C@@H](c1cc(Cl)c(Cl)cc1O)C1CCN(C(=O)C(CO)CO)CC1"
quantity = "pIC50"
result = "< 4.52"

[[record]]
molecule = "C[C@H](O)C(=O)N1CCC([C@@H](N)c2cc(Cl)c(Cl)cc2O)CC1"
quantity = "pIC50"
result = "< 4.52"

[[record]]
molecule = "O=C([C@@H]1CCNC1)N1CCC(C(O)c2cc(Cl)c(Cl)cc2O)CC1 (some centres unmarked)"
quantity = "pIC50"
result = "< 4.52"


# batch size: 6; output pIC50 per entry
1. N[C@@H](c1cc(Cl)c(C(F)(F)F)cc1O)C1CCN(C(=O)[C@H](O)CO)CC1
2. CN1C(=O)CC[C@@H]1C(=O)N1CCC([C@@H](N)c2cc(Cl)c(Cl)cc2O)CC1
3. NC(=O)N1CCC([C@H](N)c2cc(Cl)c(Cl)cc2O)CC1 (single isomer, unassigned)
4. N[C@@H](c1cc(Cl)c(Cl)cc1O)C1CCN(c2cc[nH]c(=O)c2)CC1
5. Cc1cc(O)c([C@H](N)C2CCN(C(=O)c3c[nH]c(=O)c(Cl)c3)CC2)cc1Cl
6. Cc1cc(O)c([C@H](N)C2CCN(C(=O)c3c[nH]c(=O)c(Cl)c3)CC2)c(F)c1Cl

Marked response:
< 4.52
< 4.52
< 4.52
< 4.52
< 4.52
< 4.52

# batch size: 5; output pIC50 per entry
1. N[C@@H](c1cc(Cl)c(Cl)cc1O)C1CCN(C(=O)c2ccc(=O)[nH]c2)CC1
2. CC(=O)NC(c1cc(Cl)c(Cl)cc1O)C1CCNCC1 (centres unmarked)
3. C[C@@H](O)[C@H](O)C(=O)N1CCC([C@@H](N)c2cc(Cl)c(Cl)cc2O)CC1
4. CC(=O)N1CCC([C@@H](N)c2cc(Cl)c(Cl)cc2O)CC1 (single isomer, unassigned)
5. C[C@H](O)[C@H](N)C(=O)N1CCC([C@@H](N)c2cc(Cl)c(Cl)cc2O)CC1

Marked response:
["< 4.52", "< 4.52", "< 4.52", "> 4.52", "< 4.52"]

# batch size: 5; output pIC50 per entry
1. C[C@@H]1C[C@@H]([C@@H](N)c2cc(Cl)c(Cl)cc2O)CCN1C(=O)[C@H](O)CO
2. CN1C(=O)CC[C@H]1C(=O)N1CCC([C@@H](N)c2cc(Cl)c(Cl)cc2O)CC1
3. Nc1nc(N2CCC([C@@H](N)c3cc(Cl)c(Cl)cc3O)CC2)no1
4. N[C@@H](c1cc(Cl)c(Cl)cc1O)C1CCN(C(=O)[C@H]2COCCN2)CC1
5. C[C@]1(C(=O)N2CCC([C@@H](N)c3cc(Cl)c(Cl)cc3O)CC2)CCCN1

Marked response:
["< 4.52", "< 4.52", "> 4.52", "< 4.52", "< 4.52"]

# batch size: 8; output pIC50 per entry
1. Cc1[nH]ncc1C(=O)N1CCC([C@@H](N)c2cc(Cl)c(Cl)cc2O)CC1
2. CC(C)C(=O)N1CCC(C(N)c2cc(Cl)c(Cl)cc2O)CC1 (centres unmarked)
3. N[C@@H](c1c(O)cc(Cl)c(Cl)c1Cl)C1CCNCC1 (single isomer, unassigned)
4. NC(c1cc(Cl)c(Cl)cc1O)C1CCN(C2CCOCC2)CC1 (centres unmarked)
5. N[C@@H](c1cc(Cl)c(Cl)cc1O)C1CCN(C(=O)[C@H]2C[C@H](O)C2)CC1
6. Cc1cc(O)c([C@H](N)C2CCN(C(=O)[C@@H]3OCC[C@@H]3O)CC2)cc1Cl
7. CC(=O)NC(c1c(O)ccc2ccccc12)C1CCNCC1 (centres unmarked)
8. CN1CC[C@@H](C(=O)N2CCC([C@@H](N)c3cc(Cl)c(Cl)cc3O)CC2)C1

Marked response:
["< 4.52", "> 4.52", "< 4.52", "> 4.52", "< 4.52", "< 4.52", "< 4.52", "< 4.52"]

# batch size: 2; output pIC50 per entry
1. C[C@H](N)C(=O)N1CCC(C(N)c2cc(Cl)c(Cl)cc2O)CC1 (some centres unmarked)
2. NC(c1cc(Cl)c(Cl)cc1O)C1CCN(c2ncco2)CC1 (centres unmarked)

Marked response:
["< 4.52", "> 4.52"]
